FPLR—Dynamic Range by entry:
System: intact ZIKV particles
Experiment: Direct ELISA vs. intact ZIKV particles
Format: binding, Zika virus
Conditions: direct ELISA, plates coated with 10-fold serial dilutions of intact ZIKV particles; biotinylated peptide 20 μM in PBS pH 7.4 (4G2 1 μg/mL in PBST); absorbance 450 nm; four parameters logistic fit; n = 3

substance | FPLR—Dynamic Range
C-KRNATP [X1, experimental peptide with N-terminal cysteine, labelled with maleimide-PEG2-biotin for ELISA] | 5-7 log[ZIKV], copies/mL
C-SHRNATA [H2, experimental peptide with N-terminal cysteine, labelled with maleimide-PEG2-biotin for ELISA] | 6-8 log[ZIKV], copies/mL
C-KTDAYS [X2, experimental peptide with N-terminal cysteine, labelled with maleimide-PEG2-biotin for ELISA] | 6-8 log[ZIKV], copies/mL

Okay, next one:
[Q] Retrieve FPLR—Dynamic Range measured for C-GSKANNG [H1, experimental peptide with N-terminal cysteine, labelled with maleimide-PEG2-biotin for ELISA] and print it.
[A] 5-7 log[ZIKV], copies/mL

// provenance: paper PMC6770336
